target_entity: T1, Bfl-1, Q16548
T1 chain: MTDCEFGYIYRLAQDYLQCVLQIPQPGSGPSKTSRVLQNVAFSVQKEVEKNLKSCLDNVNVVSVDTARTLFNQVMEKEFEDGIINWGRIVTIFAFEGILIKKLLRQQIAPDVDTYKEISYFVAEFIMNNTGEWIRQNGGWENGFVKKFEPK
assay_explanation: peptide SPOT array, c-Myc-tagged receptor at 1 uM or 100 nM, anti-c-Myc-Cy3
Exercise: state measured SPOT signal as a fraction of Bim BH3's signal on the same receptor and array for each of the binders provided.
Give the figure by itself; no unit, no explanation.

Give a short answer stating reported SPOT signal as a fraction of Bim BH3's signal on the same receptor and array for `GTAVAYRGAHLRGRGRAVYNTFRAAP` .
1.26

Give a short answer stating reported SPOT signal as a fraction of Bim BH3's signal on the same receptor and array for `SWFIQSLCAMLKQYLDKLEFMHILTR` .
0.21

Give a short answer stating reported SPOT signal as a fraction of Bim BH3's signal on the same receptor and array for WLKGDILGEKLVNLLDCLCNEDLESR [RNF160] .
0.05

Give a short answer stating reported SPOT signal as a fraction of Bim BH3's signal on the same receptor and array for `LALLAQPSHLMRQVLRSVFGHICSHL` .
0.54

Give a short answer stating reported SPOT signal as a fraction of Bim BH3's signal on the same receptor and array for DGLDLPSETDLRILGCELIQAAGILL [CCNL1] .
0.01

Give a short answer stating reported SPOT signal as a fraction of Bim BH3's signal on the same receptor and array for LLDFFMVSILFSKLLDLLHKLQFVLT [PCNXL2] .
0.07

Give a short answer stating reported SPOT signal as a fraction of Bim BH3's signal on the same receptor and array for WTLFVYTKGNFRMIGDDLVNSYHLLL [RBL1] .
0.12

Give a short answer stating reported SPOT signal as a fraction of Bim BH3's signal on the same receptor and array for KGKIDVCIVLLQHGADPNIRNTDGKS [TNKS] .
0.1

Give a short answer stating reported SPOT signal as a fraction of Bim BH3's signal on the same receptor and array for EEIIHKLAMQLRHIGDNIDHRMVRED [PXT1] .
0.99

Give a short answer stating reported SPOT signal as a fraction of Bim BH3's signal on the same receptor and array for GYPFNDVCQWFIDRADLIFVVFDPTK [SRL] .
0.05

Give a short answer stating reported SPOT signal as a fraction of Bim BH3's signal on the same receptor and array for DSLAKFAGRKLKDCGEDLLVEISEVL [PCM1] .
0.01

Give a short answer stating reported SPOT signal as a fraction of Bim BH3's signal on the same receptor and array for AGYELLIQKFLSLYLDQIDMHRKFVV [ISOC1] .
0.05

Give a short answer stating reported SPOT signal as a fraction of Bim BH3's signal on the same receptor and array for FQQLRHRIQDLEQLAKEQDKESEKQL [BNIP1] .
0.08

Give a short answer stating reported SPOT signal as a fraction of Bim BH3's signal on the same receptor and array for ASEAMLFEEALEKYGKDFNDIRQDFL [MTA2] .
0.01

Give a short answer stating reported SPOT signal as a fraction of Bim BH3's signal on the same receptor and array for QLRLSDAGQYLCQAGDDSNSNKKNAD [PIGR] .
0.03

Give a short answer stating reported SPOT signal as a fraction of Bim BH3's signal on the same receptor and array for `FKAWGKFGGADCRYADEMKEIQERQR` .
0.76

Give a short answer stating reported SPOT signal as a fraction of Bim BH3's signal on the same receptor and array for CLKRCRSAQVLHLYGATYSADGEDRA [NLRP12] .
0.11

Give a short answer stating reported SPOT signal as a fraction of Bim BH3's signal on the same receptor and array for IQENVDISTVYQIFADEVLGSGQFGI [PRKD3] .
0.05

Give a short answer stating reported SPOT signal as a fraction of Bim BH3's signal on the same receptor and array for LDFTFVCPTEIIAFLDRLEEFRSINT [PRDX4] .
0.04

Give a short answer stating reported SPOT signal as a fraction of Bim BH3's signal on the same receptor and array for TVATRRLSGFLRTLLDRLEGTKELLS [MINA] .
0.21

Give a short answer stating reported SPOT signal as a fraction of Bim BH3's signal on the same receptor and array for `TAAAAYRGAHLRGRGRTVYNTFRAAA` .
1.71

Give a short answer stating reported SPOT signal as a fraction of Bim BH3's signal on the same receptor and array for LFWTPLLVVLDAGLGDTEAQQTTLHP [SGCA] .
0.05

Give a short answer stating reported SPOT signal as a fraction of Bim BH3's signal on the same receptor and array for `FKAWGKFGGAFCRYLDEMKEIQERQR` .
1.19

Give a short answer stating reported SPOT signal as a fraction of Bim BH3's signal on the same receptor and array for AFGLGDLPNLDGLVGDQLGDTERKRR [ADAMTS14] .
0.04

Give a short answer stating reported SPOT signal as a fraction of Bim BH3's signal on the same receptor and array for `SWFIQSLCAMLKQYADKLEFMHILTR` .
0.25

Give a short answer stating reported SPOT signal as a fraction of Bim BH3's signal on the same receptor and array for `LALLAQPSHLMRQVARSVFGHICSHL` .
0.57

Give a short answer stating reported SPOT signal as a fraction of Bim BH3's signal on the same receptor and array for RAKASSLSEELKHFLDGLETDGTLQK [DSN1] .
0.17

Give a short answer stating reported SPOT signal as a fraction of Bim BH3's signal on the same receptor and array for SQEPLEKAQLLALVGDQLIQSHHYAA [MCF2L2] .
0.04
